experiment: in vitro; conditions: human, Caco-2, pH 7.4, Recovery (A-B), Caco-2, A-B experiments, after 60 min, mean ± SD
Consider the following molecules and their measured recovery at 60 min, 10 µM readings.

{"columns": ["MOLECULE", "UNIT TEXT", "recovery at 60 min, 10 µM"],
 "data": [
  ["CC(CN)c1ccccc1 (centres unmarked)", "%", 80.9],
  ["CC(C)NCC(O)c1ccc(O)cc1 (centres unmarked)", "%", 79.8],
  ["NCC(O)c1ccc(O)cc1 (centres unmarked)", "%", 98.9],
  ["CNCC(O)c1ccc(O)cc1 (centres unmarked) [p-Synephrine, Synephrine]", "%", 109],
  ["CN(C)CCc1ccc(O)cc1", "%", 96.7],
  ["CNCC(O)c1ccccc1 (centres unmarked)", "%", 84],
  ["Oc1ccc(CC2NCCc3cc(O)c(O)cc32)cc1 (centres unmarked)", "%", 104],
  ["NCCc1ccc(O)cc1", "%", 114],
  ["CN(C)CCc1ccccc1", "%", 76.7],
  ["CNC(C)C(O)c1ccc(O)cc1 (centres unmarked) [Methylsynephrine]", "%", 114],
  ["NCCc1ccccc1", "%", 15.7]
]}

###

system: ADRα1A; experiment: PBK modelling-based reverse dosimetry of in vitro EC50 to ED50, ADRα1A; conditions: predicted human oral ED50 from in vitro EC50 (Pinckaers et al. [2024]) and modelled Cmax plasma venous
ADRα1A ED50 listing for selected compounds.

{"columns": ["COMPOUND", "ADRα1A ED50 (mg/kg bw)"],
 "data": [
  ["CNC(C)C(O)c1ccc(O)cc1 (stereo not drawn) [Methylsynephrine]", 29.7],
  ["CNCC(O)c1ccc(O)cc1 (stereo not drawn) [p-Synephrine, Synephrine]", 3.32],
  ["NCC(O)c1ccc(O)cc1 (stereo not drawn)", 15.7]
]}

###

assay: In vitro hepatic clearance by human liver S9 (compound depletion); format: in vitro ADME; settings: human, pH 7.4; full reaction mix (HLS9 and co-factor mix), 1 µM; HLS9 concentration per compound (0.10-2 mg/mL); read-out: elimination rate constant k (converted)
MEASURED METRIC: k el at 1 µM

{"columns": ["COMPOUND", "MEASURED RESULT"],
 "data": [
  ["NCCc1ccc(O)cc1", "0.000322 s⁻¹"],
  ["CNCC(O)c1ccccc1 (stereo not drawn)", "0.000312 s⁻¹"],
  ["NCCc1ccccc1", "0.000402 s⁻¹"],
  ["CN(C)CCc1ccccc1", "0.000667 s⁻¹"],
  ["Oc1ccc(CC2NCCc3cc(O)c(O)cc32)cc1 (stereo not drawn)", "0.000367 s⁻¹"],
  ["CNCC(O)c1ccc(O)cc1 (stereo not drawn) [p-Synephrine, Synephrine]", "0.000198 s⁻¹"],
  ["CC(CN)c1ccccc1 (stereo not drawn)", "0.000403 s⁻¹"],
  ["CN(C)CCc1ccc(O)cc1", "7.33e-05 s⁻¹"],
  ["CNC(C)C(O)c1ccc(O)cc1 (stereo not drawn) [Methylsynephrine]", "4.97e-05 s⁻¹"]
]}

###

tested on: Caco-2 cells; assay: in vitro; details: scaled from corrected Caco-2 Papp A-B, human
# ka (absorption rate constant) annotations
MEASURED METRIC: ka (absorption rate constant)

{"columns": ["COMPOUND", "MEASURED METRIC", "MEASURED RESULT"],
 "data": [
  ["NCCc1ccc(O)cc1 [Tyramine, tyramine]", "ka (absorption rate constant)", "1.50 h⁻¹"],
  ["NCCc1ccccc1 [Phenethylamine, phenethylamine]", "ka (absorption rate constant)", "1.64 h⁻¹"],
  ["CNCC(O)c1ccc(O)cc1 (centres unmarked) [p-Synephrine, Synephrine]", "ka (absorption rate constant)", "0.951 h⁻¹"],
  ["CN(C)CCc1ccc(O)cc1 [Hordenine, hordenine]", "ka (absorption rate constant)", "3.46 h⁻¹"],
  ["NCC(O)c1ccc(O)cc1 (centres unmarked) [p-Octopamine, octopamine]", "ka (absorption rate constant)", "0.395 h⁻¹"],
  ["CC(CN)c1ccccc1 (stereo not drawn) [β-Methylphenethylamine, β-methylphenethylamine]", "ka (absorption rate constant)", "3.79 h⁻¹"],
  ["CC(C)NCC(O)c1ccc(O)cc1 (centres unmarked) [Isopropyloctopamine, isopropyloctopamine]", "ka (absorption rate constant)", "0.818 h⁻¹"],
  ["CNCC(O)c1ccccc1 (centres unmarked) [Halostachine, halostachine]", "ka (absorption rate constant)", "3.46 h⁻¹"],
  ["Oc1ccc(CC2NCCc3cc(O)c(O)cc32)cc1 (centres unmarked) [Higenamine, higenamine]", "ka (absorption rate constant)", "0.246 h⁻¹"],
  ["CNC(C)C(O)c1ccc(O)cc1 (centres unmarked) [Methylsynephrine]", "ka (absorption rate constant)", "0.563 h⁻¹"],
  ["CN(C)CCc1ccccc1 [Dimethylphenethylamine, N,N-dimethylphenethylamine]", "ka (absorption rate constant)", "3.66 h⁻¹"]
]}

###

experiment: In vitro hepatic clearance by human liver S9 (compound depletion); format: in vitro ADME; conditions: CLint,u scaled to a whole liver, 121 mg HLS9/g liver, human
MEASURED METRIC: Predicted intrinsic hepatic metabolic clearance CLmet (L/h)

{"columns": ["COMPOUND", "UNIT TEXT", "MEASURED RESULT"],
 "data": [
  ["CC(CN)c1ccccc1 (centres unmarked)", "L/h", 139],
  ["CNCC(O)c1ccccc1 (centres unmarked)", "L/h", 416],
  ["CN(C)CCc1ccc(O)cc1", "L/h", 27.0],
  ["CNCC(O)c1ccc(O)cc1 (centres unmarked) [p-Synephrine, Synephrine]", "L/h", 140],
  ["NCCc1ccc(O)cc1", "L/h", 841],
  ["CN(C)CCc1ccccc1", "L/h", 245],
  ["CNC(C)C(O)c1ccc(O)cc1 (centres unmarked) [Methylsynephrine]", "L/h", 19.7],
  ["Oc1ccc(CC2NCCc3cc(O)c(O)cc32)cc1 (centres unmarked)", "L/h", 261],
  ["NCC(O)c1ccc(O)cc1 (centres unmarked)", "L/h", 75.4],
  ["CC(C)NCC(O)c1ccc(O)cc1 (centres unmarked)", "L/h", 27.3],
  ["NCCc1ccccc1", "L/h", 2598]
]}

###

test system: Caco-2 cells; test: in vitro; details: scaled from corrected Caco-2 Papp A-B, human
The following compounds are listed with their measured fa (fraction absorbed) values.
MEASURED METRIC: fa (fraction absorbed)

{"columns": ["COMPOUND", "MEASURED METRIC", "MEASURED RESULT"],
 "data": [
  ["CN(C)CCc1ccc(O)cc1 [Hordenine, hordenine]", "fa (fraction absorbed)", 1.00],
  ["CC(C)NCC(O)c1ccc(O)cc1 (centres unmarked) [Isopropyloctopamine, isopropyloctopamine]", "fa (fraction absorbed)", 0.994],
  ["CN(C)CCc1ccccc1 [Dimethylphenethylamine, N,N-dimethylphenethylamine]", "fa (fraction absorbed)", 1.00],
  ["NCC(O)c1ccc(O)cc1 (centres unmarked) [p-Octopamine, octopamine]", "fa (fraction absorbed)", 0.947],
  ["CNCC(O)c1ccccc1 (centres unmarked) [Halostachine, halostachine]", "fa (fraction absorbed)", 1.00],
  ["CNC(C)C(O)c1ccc(O)cc1 (centres unmarked) [Methylsynephrine]", "fa (fraction absorbed)", 0.971],
  ["CNCC(O)c1ccc(O)cc1 (centres unmarked) [p-Synephrine, Synephrine]", "fa (fraction absorbed)", 0.997],
  ["NCCc1ccccc1 [Phenethylamine, phenethylamine]", "fa (fraction absorbed)", 1.00],
  ["Oc1ccc(CC2NCCc3cc(O)c(O)cc32)cc1 (centres unmarked) [Higenamine, higenamine]", "fa (fraction absorbed)", 0.860],
  ["CC(CN)c1ccccc1 (stereo not drawn) [β-Methylphenethylamine, β-methylphenethylamine]", "fa (fraction absorbed)", 1.00],
  ["NCCc1ccc(O)cc1 [Tyramine, tyramine]", "fa (fraction absorbed)", 1.00]
]}

###

test: In vitro hepatic clearance by human liver S9 (compound depletion); format: in vitro ADME; settings: human, s9, pH 7.4, human liver S9 with co-factor mix (NADPH, UDPGA, PAPS, SAM), 1 µM; read-out: In vitro CLint app
# log10(microsomal CLint at 1 µM) listing for each entry below
MEASURED METRIC: log10(microsomal CLint at 1 µM) (log10 of the value in µL/min/mg)

{"columns": ["COMPOUND", "log10(microsomal CLint at 1 µM)"],
 "data": [
  ["NCCc1ccccc1 [Phenethylamine, phenethylamine]", 2.38],
  ["NCC(O)c1ccc(O)cc1 (stereo not drawn) [p-Octopamine, octopamine]", 0.78],
  ["CN(C)CCc1ccccc1 [Dimethylphenethylamine, N,N-dimethylphenethylamine]", 1.30],
  ["CNCC(O)c1ccccc1 (stereo not drawn) [Halostachine, halostachine]", 1.57],
  ["CNC(C)C(O)c1ccc(O)cc1 (stereo not drawn) [Methylsynephrine]", 0.17],
  ["NCCc1ccc(O)cc1 [Tyramine, tyramine]", 1.89]
]}

The measured values listed here are drawn from paper PMC12085399.
